- protocolDetails: Stability of Compound Ia (5 mg/ml) in aqueous solutions on storage at 56°C
- Format: physicochemical
- studyConditions: 5% (w/v) glycerol, 5mg/ml, solvent 5% (w/v) Glycerol, calculated dielectric constant 76.3, 56°C, 8 weeks; read-out: %Remaining (8 weeks)
measure: remaining at 1344 h (%)
Answers are plain numbers, in %.

Query: Entry under review: CCN(CC)CCNC(=O)c1cc(Cl)c(N)cc1OC(C)C(C)=O (stereo not shown) . Reported remaining at 1344 h?
Reply: 90.9

###

- protocolDetails: Stability of Compound Ia (5 mg/ml) in aqueous solutions on storage at 56°C
- Format: physicochemical
- studyConditions: 25% (w/v) glycerol, 5mg/ml, solvent 25% (w/v) Glycerol, calculated dielectric constant 71.4, 56°C, 8 weeks; read-out: %Remaining (8 weeks)
measure: remaining at 1344 h (%)
One number for each entry, in %.

Query: Name the reported remaining at 1344 h value associated with the molecule CCN(CC)CCNC(=O)c1cc(Cl)c(N)cc1OC(C)C(C)=O (stereo not shown) [Compound Ia]
Reply: 95.3

###

- protocolDetails: Stability of Compound Ia (5 mg/ml) in aqueous solutions on storage at 56°C
- Assay type: physicochemical
- studyConditions: isotonic saline, 5mg/ml in isotonic saline, 56°C, 8 weeks; average of duplicate samples; read-out: % Remaining(a) (Isotonic Saline)
measure: remaining at 1344 h (%)
Answers are plain numbers, in %.

Query: Using the record for CCN(CC)CCNC(=O)c1cc(Cl)c(N)cc1OC(C)C(C)=O (stereo not shown) [Compound Ia] , report its remaining at 1344 h.
Reply: 66.9

###

- protocolDetails: Stability of Compound Ia (5 mg/ml) in aqueous solutions on storage at 56°C
- Type: physicochemical
- studyConditions: ethanol/water 0/100, 5mg/ml, Ethanol/Water (v/v) 0/100, calculated dielectric constant 78.5, 56°C, 4 weeks; read-out: % Remaining (4 weeks)
measure: remaining at 672 h (%)
One number for each entry, in %.

Query: Using the record for CCN(CC)CCNC(=O)c1cc(Cl)c(N)cc1OC(C)C(C)=O (stereo not shown) , report its remaining at 672 h.
Reply: 94.9

###

- protocolDetails: Stability of Compound Ia (5 mg/ml) in aqueous solutions on storage at 56°C
- Type: physicochemical
- studyConditions: ethanol/water 75/25, 5mg/ml, Ethanol/Water (v/v) 75/25, calculated dielectric constant 37.8, 56°C, 4 weeks; read-out: % Remaining (4 weeks)
measure: remaining at 672 h (%)
Give bare numbers, in %.

Query: // remaining at 672 h lookup, key: CCN(CC)CCNC(=O)c1cc(Cl)c(N)cc1OC(C)C(C)=O (stereo not shown) [Compound Ia]
Reply: 99.6

###

- protocolDetails: Stability of Compound Ia (5 mg/ml) in aqueous solutions on storage at 56°C
- Assay type: physicochemical
- studyConditions: 25% (w/v) propylene glycol, 5mg/ml, solvent 25% (w/v) Propylene Glycol, calculated dielectric constant 67.3, 56°C, 8 weeks; read-out: %Remaining (8 weeks)
measure: remaining at 1344 h (%)
Answers are plain numbers, in %.

Query: What measured remaining at 1344 h goes with CCN(CC)CCNC(=O)c1cc(Cl)c(N)cc1OC(C)C(C)=O (stereo not shown) [Compound Ia] ?
Reply: 96.8

###

- protocolDetails: Stability of Compound Ia (5 mg/ml) in aqueous solutions on storage at 56°C
- Type: physicochemical
- studyConditions: water, 5mg/ml, solvent Water, calculated dielectric constant 78.5, 56°C, 4 weeks (Table 4); read-out: % Remaining (4 weeks)
measure: remaining at 672 h (%)
Answers are plain numbers, in %.

Query: May I ask what remaining at 672 h has been recorded for CCN(CC)CCNC(=O)c1cc(Cl)c(N)cc1OC(C)C(C)=O (stereo not shown) ?
Reply: 94.9

###

- protocolDetails: Stability of Compound Ia (5 mg/ml) in aqueous solutions on storage at 56°C
- Assay type: physicochemical
- studyConditions: water, 5mg/ml in water, 56°C, 4 weeks; average of duplicate samples; read-out: % Remaining(a) (Water)
measure: remaining at 672 h (%)
Give bare numbers, in %.

Query: I have this compound here, CCN(CC)CCNC(=O)c1cc(Cl)c(N)cc1OC(C)C(C)=O (stereo not shown) , and I need its recorded remaining at 672 h.
Reply: 90.8

###

- protocolDetails: Stability of Compound Ia (5 mg/ml) in aqueous solutions on storage at 56°C
- Format: physicochemical
- studyConditions: isotonic saline, 5mg/ml in isotonic saline, 56°C, 4 weeks; average of duplicate samples; read-out: % Remaining(a) (Isotonic Saline)
measure: remaining at 672 h (%)
Give bare numbers, in %.

Query: Need remaining at 672 h of CCN(CC)CCNC(=O)c1cc(Cl)c(N)cc1OC(C)C(C)=O (stereo not shown) , thanks.
Reply: 83.5

###

- protocolDetails: Stability of Compound Ia (5 mg/ml) in aqueous solutions on storage at 56°C
- Assay type: physicochemical
- studyConditions: 0.01m citrate buffer, pH 5.7, 5 mg/ml in 0.01M citrate buffer pH 5.7, 56°C, 8 weeks; average of duplicate samples; read-out: % Remaining(a) (pH 5.7)
measure: remaining at 1344 h (%)
One number for each entry, in %.

Query: Give its remaining at 1344 h value. Item: CCN(CC)CCNC(=O)c1cc(Cl)c(N)cc1OC(C)C(C)=O (stereo not shown)
Reply: 58.9

###

- protocolDetails: Stability of Compound Ia (5 mg/ml) in aqueous solutions on storage at 56°C
- Assay type: physicochemical
- studyConditions: 0.01m citrate buffer, pH 5.7, 5 mg/ml in 0.01M citrate buffer pH 5.7, 56°C, 1 week; average of duplicate samples; read-out: % Remaining(a) (pH 5.7)
measure: remaining at 168 h

Query: Which remaining at 168 h reading was recorded for the molecule CCN(CC)CCNC(=O)c1cc(Cl)c(N)cc1OC(C)C(C)=O (stereo not shown) [Compound Ia] ?
Reply: 94.8%

###

- protocolDetails: Stability of Compound Ia (5 mg/ml) in aqueous solutions on storage at 56°C
- Type: physicochemical
- studyConditions: water, 5mg/ml, solvent Water, calculated dielectric constant 78.5, 56°C, 8 weeks (Table 4); read-out: %Remaining (8 weeks)
measure: remaining at 1344 h

Query: Which value of remaining at 1344 h has been reported for CCN(CC)CCNC(=O)c1cc(Cl)c(N)cc1OC(C)C(C)=O (stereo not shown) [Compound Ia] in the records?
Reply: 88.1%

###

- protocolDetails: Stability of Compound Ia (5 mg/ml) in aqueous solutions on storage at 56°C
- Format: physicochemical
- studyConditions: water, 5mg/ml in water, 56°C, 2 weeks; average of duplicate samples; read-out: % Remaining(a) (Water)
measure: remaining at 336 h

Query: Could you share which remaining at 336 h value was measured for CCN(CC)CCNC(=O)c1cc(Cl)c(N)cc1OC(C)C(C)=O (stereo not shown) [Compound Ia] ?
Reply: 95.5%

###

- protocolDetails: Stability of Compound Ia (5 mg/ml) in aqueous solutions on storage at 56°C
- Format: physicochemical
- studyConditions: 5% (w/v) glycerol, 5mg/ml, solvent 5% (w/v) Glycerol, calculated dielectric constant 76.3, 56°C, 4 weeks; read-out: % Remaining (4 weeks)
measure: remaining at 672 h
Answer format: value, then unit.

Query: Item CCN(CC)CCNC(=O)c1cc(Cl)c(N)cc1OC(C)C(C)=O (stereo not shown) [Compound Ia] has what recorded remaining at 672 h?
Reply: 95.1%

###

- protocolDetails: Stability of Compound Ia (5 mg/ml) in aqueous solutions on storage at 56°C
- Type: physicochemical
- studyConditions: 0.01m citrate buffer, pH 5.7, 5 mg/ml in 0.01M citrate buffer pH 5.7, 56°C, 2 weeks; average of duplicate samples; read-out: % Remaining(a) (pH 5.7)
measure: remaining at 336 h (%)
Answers are plain numbers, in %.

Query: Quick one: remaining at 336 h for CCN(CC)CCNC(=O)c1cc(Cl)c(N)cc1OC(C)C(C)=O (stereo not shown) ?
Reply: 87.8

###

- protocolDetails: Stability of Compound Ia (5 mg/ml) in aqueous solutions on storage at 56°C
- Type: physicochemical
- studyConditions: 0.01m citrate buffer, pH 6.5, 5 mg/ml in 0.01M citrate buffer pH 6.5, 56°C, 4 weeks; average of duplicate samples; read-out: % Remaining(a) (pH 6.5)
- Description: The compounds of Formula I in aqueous, isotonic (isotonicity adjusted with sodium chloride and/or dextrose) and buffered ([…], pH 5.7 and 6.5) formulations containing the equivalent of 5 mg of free base of a compound of Formula I per ml have been found unsuitable for long term shelf life. Typical isotonic and buffered formulations lost 33% and 40%, respectively, of their potency following storage for eight weeks at 56°C. […]
measure: remaining at 672 h (%)
Answers are plain numbers, in %.

Query: What value of remaining at 672 h has been reported for the following molecule? CCN(CC)CCNC(=O)c1cc(Cl)c(N)cc1OC(C)C(C)=O (stereo not shown) [Compound Ia]
Reply: 77.5
